System: NF-κB promoter, THP1-Lucia™ NF-κB cell line
Experiment: NF-κB promoter inhibition, THP1-Lucia NF-κB cell line
Type: cell-based
Conditions: 1 μM; 100 ng/ml LPS, 24 hours; read-out: NF-κB, % inhibition degree
Description: A THP1-Lucia™ NF-κB cell line (Invivogen) was used in an NF-κB inhibition experiment, and a THP1-Lucia™ ISG cell line was used in an ISG inhibition experiment. […] 50 μl of a Quanti-luc solution was aliquoted using an automatic aliquoter of a measurer (Envision Multilabel Plate Reader, Perkin Elmer, Inc.), and light emission signals were measured.
Consider the following compounds; for each one, report its inhibition at 1 µM.

Incoming: Kindly state the measured inhibition at 1 µM obtained for "Fc1cc(F)cc(-c2ccc3[nH]c4ncnc(N[C@H]5CC[C@H](N6CCOCC6)CC5)c4c3c2)c1" with NF-κB promoter, THP1-Lucia™ NF-κB cell line.
Outgoing: 15%

Incoming: Kindly state the measured inhibition at 1 µM obtained for "CCOC(=O)c1ccc2[nH]c3ncnc(N[C@H]4CC[C@H](N5CCOCC5)CC4)c3c2c1" with NF-κB promoter, THP1-Lucia™ NF-κB cell line.
Outgoing: 89%

Incoming: Kindly state the measured inhibition at 1 µM obtained for "COc1cccc(-c2ccc3[nH]c4ncnc(N[C@H]5CC[C@H](N6CCOCC6)CC5)c4c3c2)c1" with NF-κB promoter, THP1-Lucia™ NF-κB cell line.
Outgoing: 33%

Incoming: Kindly state the measured inhibition at 1 µM obtained for "Oc1cncc(-c2ccc3[nH]c4ncnc(N[C@H]5CC[C@H](N6CCOCC6)CC5)c4c3c2)c1" with NF-κB promoter, THP1-Lucia™ NF-κB cell line.
Outgoing: 40%

Incoming: Kindly state the measured inhibition at 1 µM obtained for "COc1cncc(-c2ccc3[nH]c4ncnc(N[C@H]5CC[C@H](N6CCOCC6)CC5)c4c3c2)c1" with NF-κB promoter, THP1-Lucia™ NF-κB cell line.
Outgoing: 78%
